Some molecules, each annotated with its measured IC50.
Target Desc: cap-dependent translation in rabbit reticulocyte lysate (RRL)
Protocol Notes: Inhibition of cap-dependent translation of ARCA-capped luciferase mRNA in rabbit reticulocyte lysate (RRL)
Format: biochemical
Experimental Conditions: ARCA-capped luciferase mRNA, 1% DMSO final concentration, read-out: IC50^DMSO ± SE
Measure: IC50 (nM)

Cn1c[n+]([C@@H]2O[C@H](COP(=O)(O)OP(=O)([O-])OP(=O)(O)OC[C@H]3O[C@@H](n4cnc5c(=O)[nH]c(N)nc54)[C@H](O)[C@@H]3O)[C@@H](O)[C@H]2O)c2nc(N)[nH]c(=O)c21 : 4450
Cn1c[n+]([C@@H]2O[C@H](COP(=O)([O-])OP(=O)(O)OP(=O)(O)O)[C@@H](O)[C@H]2O)c2nc(N)[nH]c(=O)c21 : 1090
COc1cccc(OC)c1OCCCn1cc(CNc2nc3c(c(=O)[nH]2)[n+](Cc2ccccc2)cn3[C@@H]2O[C@H](COP(=O)([O-])O)[C@@H](O)[C@H]2O)nn1 : 2700
